# Measured Target: T1, BCMA (Homo sapiens (Human), UniProt Q02223 1-54, limits assumed)
# T1 sequence: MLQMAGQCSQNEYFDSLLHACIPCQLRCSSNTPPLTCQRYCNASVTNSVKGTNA
# Test Name: ELISA, format not described
# Design: unit not given here
Decide using ELISA_avg: a value greater than or equal to 9 is true, a smaller one is false.

{"Binder": "D-domain SEQ ID NO: 155 (designed binder) MGSWIEFDYRLKAILHRLRALGGSEAELAAFEKEIAAFESELQAYKGKGNPEVEGLRDKAAYIRFLLQAYRHN", "Assigned Category": "true"}
{"Binder": "D-domain SEQ ID NO: 248 (designed binder) MGSWHEFKYRLALIKWYLEALGGSEAELATFEHHIAQFEWDLQKYKGKGNPEVEALRKEAAAIRDELQAYRHN", "Assigned Category": "true"}
{"Binder": "D-domain SEQ ID NO: 325 (designed binder) MGSWISFKDNLAMIKEFLEALGGSEAELAVFEWYIATFEVELQDYKGKGNPEVEALRKEAAAIRDELQAYRHN", "Assigned Category": "false"}

Query: State whether the measured ELISA_avg reaches 9, counting equality as reaching it, for D-domain SEQ ID NO: 79 (designed binder) MGSWVEFKARLEAISSRLTALGGSEAELAAFEKEIAAFESELQAYKGKGNPEVEELRYSAALIRVYLQAYRHN
Response: false

Query: State whether the measured ELISA_avg reaches 9, counting equality as reaching it, for D-domain SEQ ID NO: 327 (designed binder) MGSWTSFKHGLAGIKRVLEALGGSEAELATFEWYIAQFERHLQAYKGKGNPEVEALRKEAAAIRDELQAYRHN
Response: true

Query: State whether the measured ELISA_avg reaches 9, counting equality as reaching it, for D-domain SEQ ID NO: 118 (designed binder) MGSWYEFEDRLVAIWIRLDALGGSEAELAAFEKEIAAFESELQAYKGKGNPEVEELRYNAAFIRGALQAYRHN
Response: false

Query: State whether the measured ELISA_avg reaches 9, counting equality as reaching it, for D-domain SEQ ID NO: 143 (designed binder) MGSWTEFYQRLEAINFRLWALGGSEAELAAFEKEIAAFESELQAYKGKGNPEVEVLRDKAALIRLMLQAYRHN
Response: false

Query: State whether the measured ELISA_avg reaches 9, counting equality as reaching it, for D-domain SEQ ID NO: 249 (designed binder) MGSWNMFKYRLAHIKWYLEALGGSEAELATFEAYIADFEVDLQKYKGKGNPEVEALRKEAAAIRDELQAYRHN
Response: true

Query: State whether the measured ELISA_avg reaches 9, counting equality as reaching it, for D-domain SEQ ID NO: 68 (designed binder) MGSWYEFQSRLDAIFYRLFALGGSEAELAAFEKEIAAFESELQAYKGKGNPEVEKLREAAASIRTQLQAYRHN
Response: true

Query: State whether the measured ELISA_avg reaches 9, counting equality as reaching it, for D-domain SEQ ID NO: 74 (designed binder) MGSWFEFQHRLEAISMRLHALGGSEAELAAFEKEIAAFESELQAYKGKGNPEVEELRWQAAYIRVVLQAYRHN
Response: false
